Catalogue of polymerase ribozyme fitness (log ratio) values
B1: TPR t1 (parent)
chain: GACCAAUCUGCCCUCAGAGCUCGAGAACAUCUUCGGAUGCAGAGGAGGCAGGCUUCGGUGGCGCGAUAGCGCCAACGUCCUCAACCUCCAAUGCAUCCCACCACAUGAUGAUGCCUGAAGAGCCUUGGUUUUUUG

# Variants of: B1
# Protocol notes: polymerase ribozyme fitness, log enrichment relative to wild type (log ratio); higher = more active; in vitro selection for triplet polymerase activity
Endpoint: polymerase ribozyme fitness (log ratio)

polymer_sequence="GACCAAUCUGCCUUCAGAGCUCGAGAACAUCUUCGGAUGCAGAGGAGGCAGGCUUCGGUGGCGCGAUAGAGCCAACGUCCUCAACCUCCAAUGCAUCCCACCACAUGAUGAUGCCUGAAGAGCCUUGGUUUUUUG [C13U C70A]" meas_value=-0.46
polymer_sequence="GACCAAUCUGCCCUCAGAGCUCGAGAACAUCUUCGGAUGCAGAGGAGGCAGGCUUCGGUGGCGCGAUAGCGCCAACGUCCACAACCUCCAAUGCAUCCCACCACAUGAUGAUGCCUUAAGAGCCUUGGUUUUUUG [U81A G117U]" meas_value=-3.99
polymer_sequence="GACCAUUCUGCCCUCAGAGCUCGAGAACAUCUUCGGAUGCAGAGGAGGCAGGCUUCGGUGGCGCGAUAGCGCCAACGUCCUCAACCUCCAAUGCAUCCCACCACAUGAUGAUGCCUGAAGAGCAUUGGUUUUUUG [A6U C124A]" meas_value=1.49
polymer_sequence="GACCAAUCUGCCCUCAGAGCUCGAGAACAUCUUCGGAUGCAGAGGAGGCAGGCUUCGGUGGCGCGAUAGCGCCAACGUCCUCAACCUCCAAUGCGUCCCACCACAUGAUGCUACCUGACCAGCCUUGGUUUUUUG [A95G A111C G113A A119C G120C]" meas_value=-3.77
polymer_sequence="GACCAAUCUGCCCUCAGAGCUCGAGAACAUCUUCGGAUGCAGAGGAGGCAGGCUUCGGUGGCGCGAUAGUGCCAACGUCCUCAACCUCCAAUGCAACCCACCACAUGAUGAUGCCUGAAAAGCCUUGGUUUUUUG [C70U U96A G120A]" meas_value=-0.134
polymer_sequence="GACCAAUCUGCCCUCAGAGCUCGAGAACAUCUUCGGAUGCAGAGGAGGCAGGCUUCGGUGGCGCGAUAGCGCCAACGUCCUCAACCUCCAAUACAUCCCACCACAUGAUGAUGCCUGAAGAGACUUGGUUUUUUG [G93A C123A]" meas_value=0.264
polymer_sequence="GAACAAUCUGCCCUCAGAGCUCGAGAACAUCUUCGGAUGCAGAGGAGGCAGGCUUCGGUGGCGCGAUAGCGCCAACGUCCUCAAACUCCAAUGCAUCCCACCACAUGAUGAUGCCUGAAGAGCCUUGGUUUUUUG [C3A C85A]" meas_value=-3.94
polymer_sequence="GACCAAUCUGCCCUCAGAGCUCGAGAACAUCUUCGGAUGCAGACGAGGCGGUCCUCGGUGGCGCGAUAGCGCCAACGUCCUCAACCUCCAACGCAUCCCACCACAUGAUGAUGCCUGAAGAGCAUUGGUUUUUUG [G44C A50G G52U U54C U92C C124A]" meas_value=0.995
polymer_sequence="GCCCAAUCUGCCCUCAGAGCUCGAGAACAUCUUCGGAUGCAGAGGAGGCAGGCUUCGGUGGCGCGAUAGCGCCAACGUCCUCAACCUCCAAUGCAUCCCACCACAUGAUGAUGCCUUAAGAGCCUUGGAUUUUUG [A2C G117U U129A]" meas_value=-4.64
polymer_sequence="GACCAAUAUGCCCUCAGAGCUCGAGAACAUCUUCGGAUGCUGAGGAGGCAGGCUUCGGUGGCGCGAUAGCGCCAACGUCCUCAACCUCCAAUGCAUCCCACCACAUGAUGACGCCUGAAGAGCCUUGGUUUUUUG [C8A A41U U112C]" meas_value=0.774
polymer_sequence="GACCAAUCUGCCCUCAGAGCUCGAGAACAUCUUCGGAUGCAGAAGAGGCAGGCUUCGGUGGCGCGAUAGCGGCAACGUCCUCAACCUCCAAUGCAUCCCACCACAUGAUGAUGCCUGAAGAGCCUUGGUUUUUUG [G44A C72G]" meas_value=-1.16
polymer_sequence="GACCAAUCUGCCCUCAGAGCUCGAGAACAUCUUCGGAUGCAGAGGAUGCAGGCUUCGGUGGCGCGAUAGUGCCAACGUCCUGAACCUCCAAUGCAUCCCACCACAUGAUGAUGCCUGAAUAGCGUUAGUUUUUUG [G47U C70U C82G G120U C124G G127A]" meas_value=-0.105
polymer_sequence="GACUAAUCUGCCCUCAGAGCUCGAGAACAUCUUCGGAUGCAGAGGAGGCAGGCUUCGGUGGCUCGAUAGCGCCAACGUCCUCAACCUCCAAUGCAUCCCACCACAUGAUGAUGCCUGAAGAGCCUUGGUUUUUUG [C4U G63U]" meas_value=-1.66
polymer_sequence="GACCAAUCUGGCCUCAGAGCUGGAGAACAUCUUCGAAUGCAGAGGAGGCAGGCUUCGGUGGCGCGAUAGUGCCAACGUCCUCCACCUCCAAUGCAUCCCACCACAUGAUGAUGCCUGAAGAGCCUUGGUUUUUUG [C11G C22G G36A C70U A83C]" meas_value=-5.41
polymer_sequence="GACCAAUCUGCCCUCAGAGCUCGAGAACAUCUUCGGAUGCAGAGGAGGCAGGCUUCGGUGGCGCGAUAGCGCCAACGUCCUCAACCUCCAAUGCAUCCCACUAAAUGAUGAUGCCUGAAGAGCCUUGGUCUUUUG [C102U C104A U130C]" meas_value=-0.457
polymer_sequence="GACCAAUCUGCCCUCAGAGCUCGAGAACAUCUUCGGAUGCAGAGGAGGCAGGAUUCGGUGACGCGAUAGCGCCAACGGACGCAAACUCCAAUGCAUCCCACCACAUGAUGAUGCCUGAAGAGCCUUGGUUUUUUG [C53A G61A U78G C79A U81G C85A]" meas_value=-4.32
polymer_sequence="GACCAAUCUGCCCUCAGAGCUCGAGAACAUCUUCGGAUGCAGAGGAGGCAGGCUUCGGUGGCGCGAUAGCGCCAACGUCCUCAACCUCCAAUGCAUCCCACCACAUGAUGUUGCCUGAAGAGCUUUGGUUUUUUG [A111U C124U]" meas_value=-3.09
polymer_sequence="GACCAAUCUGCCCUCAGAGCUCGAGAACAUCUUCGGAUGCAGAGGAGUCAGGCGUCGCUGGCGCGAUAGCGCCAACGUCCUCAACCUCCAAUGCAUCCCACCACAUGAUGAUGCCUGAAGAGCCUUGGAUUUUUG [G48U U54G G58C U129A]" meas_value=-2.45
polymer_sequence="GACCAAGCUGCCCUCAGAGCUCGAGAACAUCUUCGGAUGCAGAGGAGGCAGGCUUCGGUGGCGCGAUAGCGGCAACGUCCUCAACCUCCAAUGCAUCCCACCACAUGAUGAUGCCUGAAGAGCCUUGGUUUUUUG [U7G C72G]" meas_value=0.441
polymer_sequence="GACCAUUCUGCCCUCAGAGCUCGAGAACAUCUUCGGAUGCAGAGGAGGCAGCCUUUGGUGGCGCGAUAGCGCCAACGUCGUCAACCUCCAAUGCAUCCCACCACAUGAUGAUGCCUGAAGGGCCUUGGUUUUUUG [A6U G52C C56U C80G A121G]" meas_value=-1.97
polymer_sequence="GACCAAUCUGCCCUCAGAGCUCGAGAACAUCUUCGGAUGCAGAGGAGGCAGGCUUCGGUGGCGCGAUAGCGCCAACGUCCUCAACCUCCAAUGAAUCACACCACAUGAUGAUGCCUGAAGAGCCUUGGUUUUUUG [C94A C98A]" meas_value=-6.59

Reference source for all entries: the RNAGym collection of RNA variant scans (doi:10.1073/pnas.2313332121)
